assayed-system: MAGL (Mus musculus (Mouse))
Sequence (O35678 whole entry): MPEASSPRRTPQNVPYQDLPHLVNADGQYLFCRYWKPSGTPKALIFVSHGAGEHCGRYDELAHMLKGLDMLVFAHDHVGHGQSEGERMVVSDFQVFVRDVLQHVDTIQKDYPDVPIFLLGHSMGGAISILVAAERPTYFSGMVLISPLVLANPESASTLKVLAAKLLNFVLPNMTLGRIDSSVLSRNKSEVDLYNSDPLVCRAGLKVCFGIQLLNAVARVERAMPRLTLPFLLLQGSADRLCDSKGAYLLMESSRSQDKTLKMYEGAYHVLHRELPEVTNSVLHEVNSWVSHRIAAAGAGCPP
measurement-protocol: Mouse brain proteomes from inhibitor treated mice (oral gavage, 4 h), MAGL
Assay type: in vivo
measurement-parameters: read-out: MAGL % inh. 5 mg/kg (mouse)
Method: Preparation of Mouse Brain Proteomes from Inhibitor Treated Mice. Inhibitors were administered to wild-type C57Bl/6J by oral gavage in a vehicle of polyethylene glycol. Each animal was sacrificed 4 h following administration and brain proteomes were prepared and analyzed according to previously established methods (See Niphakis, M. J., et al. (2011) ACS Chem. Neurosci. and Long, J. Z., et al. Nat. Chem. Biol. 5:37-44).
property-measured: inhibition at 5 mg/kg

Completed entries (count: 6):
Read the entry CS(=O)(=O)Nc1cnn(C(=O)N2CCC3(CCN(Cc4cc(Cl)cc(C(F)(F)F)c4)C3)CC2)c1 and write its reported inhibition at 5 mg/kg.
≥ 75%

Provide inhibition at 5 mg/kg value for the following molecule: CC(=O)N(C)c1cnn(C(=O)N2CCC3(CCN(Cc4ccccc4Cl)C3)C2)c1 (stereo not shown)
≥ 75%

Check the records and state inhibition at 5 mg/kg for CS(=O)(=O)Nc1cnn(C(=O)N2CCN(Cc3ccc(N4CCCC4)cc3C(F)(F)F)CC2)c1
50 to 75%

Respond only with inhibition at 5 mg/kg recorded for CC(=O)N(C)c1cnn(C(=O)N2CC3CN(Cc4ccccc4Cl)CC3C2)c1 (stereo not shown)
50 to 75%

Provide only the value of recorded inhibition at 5 mg/kg for CC(=O)N(C)c1cnn(C(=O)N2CC3CN(Cc4ccc(Oc5cncnc5)cc4Cl)CC3C2)c1 (stereo not shown)
0 to 25%

Tell me inhibition at 5 mg/kg reported for CC(=O)N(C)c1cnn(C(=O)N2C[C@H]3C[C@H](N(Cc4ccccc4Cl)C(C)=O)C[C@H]3C2)c1
0 to 25%

Consider the additional molecule presented here.
Identify the reported inhibition at 5 mg/kg for the following entry. CC(=O)N(C)c1cnn(C(=O)N2C[C@H]3C[C@H](N(C)Cc4ccc(Cl)cc4)C[C@H]3C2)c1
≥ 75%

The measured values listed here are drawn from patent US10323038B2.
